assay-text: COS7 lysate on small-molecule microarray, probe aHis, 635 nm (AID 1123);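 further: z-score combines 667nm fluorescence intensity with signal-to-noise per printed compound spot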
condition-details: COS7 cell lysate, fluorescence, higher = more signal
reported-metric: composite z-score
Field format: numeric only.

Below: 5 compounds and their reported composite z-score.
>  <compound>
COCC(=C=CC[C@@H](O)c1ccccc1OCCO)CCO

>  <reading>
0.994

$$$$
>  <compound>
CCOC(=O)[C@H](Cc1ccccc1)NC(=O)CCC1CC(OC(=O)NCc2ccc3c(c2)OCO3)CC2(CCCC(COC(=O)NCc3cccc(C(F)(F)F)c3)O2)O1 (stereo partly specified)

>  <reading>
0.287

$$$$
>  <compound>
CC(C)=NOCc1ccc(-c2cc(-c3ccccc3)no2)cc1

>  <reading>
-0.676

$$$$
>  <compound>
CCOC(=O)C1=CCC(c2cc3ccccc3[nH]2)NC1 (stereo unspecified)

>  <reading>
1.7

$$$$
>  <compound>
CC1CC/C=C\[C@H]2OC34C=CCN(C(C)C)C(=O)[C@H]3N(CCCO)C(=O)[C@@H]4C2C(=O)O1 (stereo partly specified)

>  <reading>
0.702

$$$$

Task item: Would you kindly share the measured composite z-score for O=C1[C@H]2[C@H]3[C@H](O)[C@H](O)CC(=NO[C@@H]4O[C@H](CO)[C@@H](O)[C@H](O)[C@H]4O)[C@@H]3CC[C@H]2C(=O)N1c1ccc(F)cc1F ?
Reply: -0.0596

---

target-system: Dickkopf-related protein 1 (Homo sapiens)
assay-text: DKK1 binders on small-molecule microarrays, primary screen, biochemical, small-molecule microarray, 635 nm fluorescence scan (AID 1106);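 further: score merges emission near 667 nm with signal to noise over three replicate slides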
condition-details: DKK1 binding, higher = more signal
reported-metric: composite z-score

Below: 2 compounds and their reported composite z-score.
>  <compound>
CCCNC(=O)OC[C@H]1O[C@H](CCON=C2[C@H]3CCn4c(=O)n(-c5ccccc5)c(=O)n4[C@H]3[C@H](O)[C@@H]3O[C@H]23)C=C[C@@H]1Oc1ccc(OC)cc1

>  <target-system>
Dickkopf-related protein 1 (Homo sapiens)

>  <reported-metric>
composite z-score

>  <reading>
0.378

$$$$
>  <compound>
O=C1C[C@@H](O)[C@@H](O)[C@@H]2[C@@H]3C(=O)N(c4ccc(F)cc4F)C(=O)[C@@H]3CC[C@@H]12

>  <target-system>
Dickkopf-related protein 1 (Homo sapiens)

>  <reported-metric>
composite z-score

>  <reading>
0.612

$$$$

Task item: Would you kindly share the measured composite z-score for CC(=O)OC[C@H]1O[C@H](CCON=C(C)CCN2CCc3nc(-c4ccccc4)c(-c4ccccc4)cc3C2)C=C[C@@H]1OC(C)=O ?
Reply: 0.222

Task item: What do you get for O=C1C[C@@H](O)[C@@H](O)[C@@H]2[C@@H]3C(=O)N(C4CCCCC4)C(=O)[C@@H]3CC[C@H]12 ?
Reply: 0.718

Task item: What do you get for CO[C@H]1COC(=O)[C@@H]2CCCN2C(=O)[C@@H](C)COC(=O)CC=C[C@@H]1C ?
Reply: 1.1

Task item: What do you get for N#Cc1ccc(NN2C(C(O)c3cc(C(F)(F)F)cc(C(F)(F)F)c3)C=CC3C(=O)N(c4ccccc4)C(=O)C32)cc1 (stereo not given) ?
Reply: -0.62

Task item: What do you get for COc1ccc([Si](C)(C)[C@@H]2[C@@H](CC(=O)N3CCC[C@H]3CO)O[C@]3(C(=O)N(Cc4cccc(N5CCC5=O)c4)c4ccccc43)[C@H]2C)cc1 ?
Reply: 0.726

---

target-system: Calmodulin-1 (Homo sapiens) (UniProt P0DP23)
assay-text: CALM1 binders on microarrays, EGTA buffer, profiling panel, biochemical, small-molecule microarray, Cy5-labelled CALM1 (AID 1111);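 further: labelled calmodulin applied in Tris saline Tween buffer holding calcium plus EGTA and DTT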
condition-details: Cy5-CALM1 binding fluorescence, higher = more signal
reported-metric: composite z-score
Field format: numeric only.

>  <compound>
CC(CCN1CCc2nc(-c3ccccc3)c(-c3ccccc3)cc2C1)=NOC(C)CN1CCCCc2nc(C)c(C)cc21 (stereo not drawn)

>  <target-system>
Calmodulin-1 (Homo sapiens) (UniProt P0DP23)

>  <reading>
0.578

$$$$
>  <compound>
CO[C@@H]1COC(=O)CC=C[C@@H](C)[C@H](OC)COC(=O)[C@H](COCc2ccccc2)NC(=O)CC=C[C@H]1C

>  <target-system>
Calmodulin-1 (Homo sapiens) (UniProt P0DP23)

>  <reading>
-1.07

$$$$
>  <compound>
CC=CC1=C(CO)[C@H](O)[C@H]2O[C@H]2[C@H]1O

>  <target-system>
Calmodulin-1 (Homo sapiens) (UniProt P0DP23)

>  <reading>
-0.381

$$$$
>  <compound>
O=C1[C@H]2[C@H]3[C@H](O)[C@H](O)CC(=NO[C@@H]4O[C@H](CO)[C@@H](O)[C@H](O)[C@H]4O)[C@@H]3CC[C@H]2C(=O)N1c1ccc(F)cc1F

>  <target-system>
Calmodulin-1 (Homo sapiens) (UniProt P0DP23)

>  <reading>
-0.364

$$$$
>  <compound>
CCOC(=O)NN=C1C[C@@H](O)[C@@H](O)[C@@H]2[C@@H]3C(=O)N(CC)C(=O)[C@@H]3CC[C@@H]12

>  <target-system>
Calmodulin-1 (Homo sapiens) (UniProt P0DP23)

>  <reading>
-0.21

$$$$

Task item: Would you kindly share the measured composite z-score for CCOC(=O)CCN1C(=O)[C@H]2[C@H]3[C@H](O)[C@H](O)CC(=NOC[C@@H](O)COCc4ccco4)[C@H]3CC[C@H]2C1=O ?
Reply: -0.039

Task item: What do you get for C=C(/C(=C/C[C@@H](OC(=O)c1ccncc1)c1ccc(OCCO)cc1)c1cnc2ccccc2c1)C(C)C ?
Reply: 0.193

Task item: What do you get for CN1C(=O)[C@@]2(CCC(=O)OC(C)(C)C)N=C(c3ccc(OCCCO)cc3)O[C@H]2c2ccccc21 ?
Reply: 0.878

Task item: What do you get for COCCOC(=O)N1C(=O)[C@@]2(c3cc(C#CC4(O)CCCCCC4)ccc31)[C@H](c1ccc(OCCO)cc1)N1[C@H](c3ccccc3)[C@H](c3ccccc3)OC(=O)[C@H]1[C@@H]2C(=O)NC[C@H](O)c1ccccc1 ?
Reply: 1.28

Task item: What do you get for CO[C@@H]1COC(=O)[C@@H]2CCCN2C(=O)[C@@H](C)COC(=O)[C@H](COCc2ccccc2)NC(=O)CC=C[C@H]1C ?
Reply: -0.142

Task item: What do you get for CC(C)CN1CCc2nc(-c3ccccc3)c3c(c2CC1)CO[C@@H](C)C3 ?
Reply: -0.268

Task item: What do you get for C=CCOC(=O)[C@H]1[C@@H]2C(=O)O[C@@H](c3ccccc3)[C@@H](c3ccccc3)N2[C@@H](c2ccc(OCCOC(=O)[C@H]3C[C@H]4C(=O)N[C@@H](Cc5ccccc5)C(=O)N4[C@H]3c3ccc(O)cc3)cc2)[C@]12C(=O)Nc1ccccc12 ?
Reply: 0.743

Task item: What do you get for COCCOC(=O)N1C(=O)[C@@]2(c3ccccc31)[C@H](C(N)=O)[C@H]1C(=O)O[C@H](c3ccccc3)[C@H](c3ccccc3)N1[C@@H]2c1ccccc1OCCO ?
Reply: 2.3

---

target-system: Left-right determination factor 2 (Homo sapiens) (UniProt O00292)
Sequence (O00292 whole entry, looked up): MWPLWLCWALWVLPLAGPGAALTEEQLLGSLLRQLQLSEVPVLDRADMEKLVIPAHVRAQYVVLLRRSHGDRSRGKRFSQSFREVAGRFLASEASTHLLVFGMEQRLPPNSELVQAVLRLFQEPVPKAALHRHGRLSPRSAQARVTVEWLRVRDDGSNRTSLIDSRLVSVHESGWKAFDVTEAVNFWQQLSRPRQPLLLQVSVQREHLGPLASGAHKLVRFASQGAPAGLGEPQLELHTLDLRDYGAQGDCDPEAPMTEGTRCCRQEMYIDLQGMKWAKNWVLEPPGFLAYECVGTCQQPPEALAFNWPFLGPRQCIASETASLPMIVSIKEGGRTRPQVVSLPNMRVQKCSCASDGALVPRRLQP
assay-text: LEFTY2 binders on small-molecule microarrays, primary screen, biochemical, small-molecule microarray, 635 nm fluorescence scan (AID 1110)
condition-details: LEFTY2 binding, higher = more signal
So basically, the class depends on measured composite z-score, and the ranges are I: < -0.2; II: ≥ -0.2 and < 0.6; III: ≥ 0.6

Example entries begin here.
>  <compound>
Cc1cc2c(nc1C)CCCN2CC(O)CN1CCN(C)CC1 (configuration not stated)

>  <group-label>
III

$$$$
>  <compound>
CCCC[C@H]1OB(O)C[C@H]2C1=C(C)C[C@H]1C(=O)N(C)C(=O)[C@H]12

>  <group-label>
III

$$$$
>  <compound>
CCN1C(=O)[C@H]2[C@H]3[C@H](O)C=CC(=O)[C@@H]3CC[C@H]2C1=O

>  <group-label>
II

$$$$

Task item: Hello team, could you let me know which band the following compound falls into: CCc1cc2c(nc1CC)CCN(CCC(C)=NO[C@@H](C)c1cc(-c3c(C)cc(C)cc3C)no1)C2
Reply: I

Task item: What do you get for CCOC(=O)CCN1C(=O)[C@H]2[C@H]3[C@H](O)[C@H](O)CC(=NOC[C@@H](O)COCc4ccco4)[C@@H]3CC[C@H]2C1=O ?
Reply: II

Task item: What do you get for CCCC[C@@H]1C[C@H]1[C@@H](NS(=O)(=O)c1cccc2cccnc12)c1ccc(-c2ccccc2)cc1 ?
Reply: I

Task item: What do you get for c1ccc(C2NCCc3c2[nH]c2ccccc32)cc1 (configuration not stated) ?
Reply: II

---

assay-text: P. aeruginosa biofilm formation inhibitors, primary screen, PAO1 strain, BacTiter-Glo luminescence, LB-PBS (AID 1144)
condition-details: 12 h, higher = more signal
// reported z-score per item
Field format: numeric only.

Below: 2 compounds and their reported z-score.
>  <entry-smiles>
[N-]=[N+]=NCc1ccccc1C[C@]1(C(=O)NCc2ccccc2)N=C(c2ccc(OCCCO)cc2)O[C@H]1c1ccccc1N=[N+]=[N-]

>  <reported-metric>
z-score

>  <reading>
-0.144

$$$$
>  <entry-smiles>
CC(C)=C1C(=O)C(c2ccccc2)=C2CN3C(=O)N(CCc4ccccc4)C(=O)[C@]3(Cc3ccc(F)cc3)[C@H]21

>  <reported-metric>
z-score

>  <reading>
-0.00959

$$$$

// moving on: another record for z-score
Task item: Would you kindly share the measured z-score for CC(CCC(=O)OC[C@H]1O[C@H](C#Cc2ccccc2)C=C[C@@H]1Oc1ccc(C)cc1)=NO[C@@H](C)c1cn([C@H](CO)Cc2ccccc2)nn1 ?
Reply: -1.07
